- System: MALME-3M melanoma
- TEST: NCI-60 one-dose screen, 48 h (100 = growth as untreated, 0 = no growth, -100 = all killed)
- CONDITION_SUMMARY: 10 µM
- Method: Cells are grown in 96 well plates and exposed to the test compound for 48 hours. Compounds are tested at a single concentration, which is 10^-5 M for most compounds. The reported endpoint is percent growth (GI% or GIPRCNT), where numbers from 0 - 100% represent growth inhibition, and numbers from -100% - 0 represent cell death. For example, a value of 40 represents 60% growth inhibition. A value of 0 means no net growth occurred over the course of the experiment. […]
Compounds without any hit were thinned out: in the full panel of roughly 83,000, 20% have a hit.
Could you mark each record 1.0 if its growth falls strictly under 60%, and 0.0 if it equals or exceeds it?

Worked examples, 5 compounds total:
> print(dat)
                                   compound  category
1  Cn1c2ccccc2c2c3[nH][nH]c(=O)c3c3c4ccccc4[nH]c3c21       0.0
2            CCOC(=O)N/N=C/c1ccc(OC)c(OC)c1       0.0
3  O=C1/C=C/[C@@H](O)[C@@H]2C[C@@H](O)C[C@H]2/C=C/CCC[C@@H](C(F)(F)F)O1       0.0
4  COc1cc2cc(Oc3ccc(NC(=O)Nc4ccc(Cl)c(Cl)c4)cc3)c(C)nc2cc1OC       1.0
5      Clc1ccc2c(c1)C(N1CCNCC1)=Nc1ccccc1O2       1.0

Confirm or reject: growth of COc1ccc(/C=C/C(=O)C(=O)/C=C/c2ccc(OC)c(OC)c2)cc1OC lies strictly below 60%
1.0

Confirm or reject: growth of COC1OC(COS(=O)OC)C(O)C(O)C1OS(=O)OC (stereo unspecified) lies strictly below 60%
0.0

Confirm or reject: growth of COc1cc(-c2nn(-c3ccc(NC(=O)NCCCNC(=O)c4ccccc4)cc3)cc2-c2ccncc2)ccc1Cl lies strictly below 60%
1.0

Confirm or reject: growth of O=C1/C(=C/c2cccc(F)c2)Cc2ccccc21 lies strictly below 60%
0.0

Confirm or reject: growth of CCNc1nc(C(F)(F)F)nc2c1sc(=S)n2-c1ccccc1 lies strictly below 60%
0.0
